# Tested on: IGROV1 ovarian
# MEASUREMENT_PROTOCOL: NCI tumour cell line growth inhibition, 48 h
Documented TGI across a set of compounds

>  <COMPOUND>
COc1ccc(N=NC(=O)NC(CC(C)C)C(N)=O)cc1 (centres undefined)

>  <SYSTEM_TESTED>
IGROV1 ovarian

>  <COMPARISON_SYMBOL>
>

>  <TGI (µM)>
100

$$$$
>  <COMPOUND>
O=C(/C=C\c1ccc([N+](=O)[O-])cc1)c1ccccc(=O)c1O

>  <SYSTEM_TESTED>
IGROV1 ovarian

>  <COMPARISON_SYMBOL>
=

>  <TGI (µM)>
4.16

$$$$
>  <COMPOUND>
CC1=C2[C@@H](CC1)[C@]1(C)O[C@@](C(C)C)(C[C@H]1OC(=O)CO)[C@H]2OC(=O)C1CC1c1ccccc1 (some centres undefined)

>  <SYSTEM_TESTED>
IGROV1 ovarian

>  <COMPARISON_SYMBOL>
=

>  <TGI (µM)>
46.7

$$$$
>  <COMPOUND>
Cc1cc(S(=O)(=O)Nc2nc3ccccc3nc2-c2ccc(Cl)cc2)c(S)cc1Cl

>  <SYSTEM_TESTED>
IGROV1 ovarian

>  <COMPARISON_SYMBOL>
=

>  <TGI (µM)>
24.9

$$$$
>  <COMPOUND>
COC(=O)c1c(C#N)c(N)nc2c1CCC2

>  <SYSTEM_TESTED>
IGROV1 ovarian

>  <COMPARISON_SYMBOL>
>

>  <TGI (µM)>
100

$$$$
>  <COMPOUND>
O=S(=O)(O)c1cc(O)c(N=Nc2ccc(O)cc2O)c2ccccc12

>  <SYSTEM_TESTED>
IGROV1 ovarian

>  <COMPARISON_SYMBOL>
>

>  <TGI (µM)>
100

$$$$
>  <COMPOUND>
CCOC(=O)C(=O)CC1=Nc2ccccc2SC(c2cccc(C)c2)C1 (centres undefined)

>  <SYSTEM_TESTED>
IGROV1 ovarian

>  <COMPARISON_SYMBOL>
=

>  <TGI (µM)>
35.7

$$$$
>  <COMPOUND>
O=C(O)c1ccc(C2=Cc3cc(Cl)ccc3OC2)cc1

>  <SYSTEM_TESTED>
IGROV1 ovarian

>  <COMPARISON_SYMBOL>
>

>  <TGI (µM)>
100

$$$$
>  <COMPOUND>
O=C(N/N=C\c1ccc(N(CCCl)CCCl)cc1[N+](=O)[O-])c1cccnc1

>  <SYSTEM_TESTED>
IGROV1 ovarian

>  <COMPARISON_SYMBOL>
>

>  <TGI (µM)>
100

$$$$

###

# System: MOLT-4 leukemia
# MEASUREMENT_PROTOCOL: NCI tumour cell line growth inhibition, 48 h

>  <COMPOUND>
Cn1cc(-c2ccc3cc(-c4ccc(CC(=O)Nc5cc(C(C)(C)C)on5)cc4)cnc3c2)cn1

>  <GI50>
3.01 µM

$$$$
>  <COMPOUND>
COc1ccc2c(c1OC)CO[C@@H]2[C@H]1c2c(cc3c(c2OC)OCO3)CCN1S(=O)(=O)c1cn(C)cn1

>  <GI50>
3.84 µM

$$$$
>  <COMPOUND>
CC1C(C)N(C(=O)CCl)c2ccccc2N1C(=O)CCl (stereo not drawn)

>  <GI50>
0.243 µM

$$$$
>  <COMPOUND>
Cc1csc2[n+]1-c1ccccc1N(C(=O)Nc1ccccc1)C(C)C2 (stereo not drawn)

>  <GI50>
88.5 µM

$$$$
>  <COMPOUND>
COC(=O)c1ccc(CN2C(=O)C(Cl)=C(Nc3cccc(Cl)c3C)C2=O)cc1

>  <GI50>
5.14 µM

$$$$
>  <COMPOUND>
O=C(N/N=C\c1ccc(N(CCCl)CCCl)cc1[N+](=O)[O-])c1cccnc1

>  <GI50>
> 100 µM

$$$$
>  <COMPOUND>
COc1cc(/C=N/Nc2ncnc3c2cnn3-c2ccccc2)ccc1O

>  <GI50>
> 25 µM

$$$$
>  <COMPOUND>
CC(N)(Cc1c[nH]c2cccc(F)c12)C(=O)O (stereo not drawn)

>  <GI50>
> 1000 µM

$$$$
>  <COMPOUND>
CCCCCCCCCCCCCC[N+](C)(C)CCCCCCCCCCCCCC

>  <GI50>
2.41 µM

$$$$
>  <COMPOUND>
CCC(C)Nc1ccc(N)cc1 (stereo not drawn)

>  <GI50>
4.29 µM

$$$$
>  <COMPOUND>
CC1(C)CNc2cc(NC(=O)c3cccnc3NCc3ccncc3)ccc21

>  <GI50>
23.8 µM

$$$$
>  <COMPOUND>
NCCCC[C@@H]1NC(=O)[C@H](CC(=O)O)NC(=O)CNC(=O)[C@H](CCCN=C(N)N)NC(=O)[C@@H](N)CSSC[C@@H](C(=O)O)NC(=O)[C@H](CC(=O)O)NC(=O)[C@@H]2CCCN2C(=O)CNC1=O

>  <GI50>
> 100 µM

$$$$
>  <COMPOUND>
COc1ccc2c(c1)nc(C(=O)c1ccco1)c(C(F)(F)F)[n+]2[O-]

>  <GI50>
> 100 µM

$$$$
